Cited source for all entries: patent US12448358B2

Read-out record for PAD1 (Homo sapiens, UniProt Q9ULC6): Ki
REPORTED_PROPERTY: Ki (µM)

Use these answered entries as a reference point.
Task item: Return reported Ki; argument: N=C(CF)NCCC[C@H](NC(=O)c1cc(Br)cc(Br)c1O)c1nc2ccccc2[nH]1 [Compound 11]
Reply: 54.8

Task item: Return reported Ki; argument: C#Cc1c(I)cc(C(=O)N[C@@H](CCCNC(=N)CCl)c2nc3ccccc3[nH]2)c(O)c1I [Compound 22]
Reply: 35.2

[P] COc1c(I)cc(I)cc1C(=O)NC(CCCNC(=N)CF)c1nc2ccccc2[nH]1 (stereo not shown) [Compound 3]
[Q] N=C(CF)NCCC[C@H](NC(=O)c1cc(I)cc(I)c1O)c1nc2ccccc2[nH]1 [Compound 1]
Task item: Could you determine which record has the numerically smaller Ki? Candidates: P and Q Pick one; state its label.
Reply: Q

----------
Reported values of kinact/KI for individual entries
- TARGET_OR_TEST_SYSTEM: PAD1 (Homo sapiens, UniProt Q9ULC6)
- Construct: made in house
- Sequence (Q9ULC6 1-663): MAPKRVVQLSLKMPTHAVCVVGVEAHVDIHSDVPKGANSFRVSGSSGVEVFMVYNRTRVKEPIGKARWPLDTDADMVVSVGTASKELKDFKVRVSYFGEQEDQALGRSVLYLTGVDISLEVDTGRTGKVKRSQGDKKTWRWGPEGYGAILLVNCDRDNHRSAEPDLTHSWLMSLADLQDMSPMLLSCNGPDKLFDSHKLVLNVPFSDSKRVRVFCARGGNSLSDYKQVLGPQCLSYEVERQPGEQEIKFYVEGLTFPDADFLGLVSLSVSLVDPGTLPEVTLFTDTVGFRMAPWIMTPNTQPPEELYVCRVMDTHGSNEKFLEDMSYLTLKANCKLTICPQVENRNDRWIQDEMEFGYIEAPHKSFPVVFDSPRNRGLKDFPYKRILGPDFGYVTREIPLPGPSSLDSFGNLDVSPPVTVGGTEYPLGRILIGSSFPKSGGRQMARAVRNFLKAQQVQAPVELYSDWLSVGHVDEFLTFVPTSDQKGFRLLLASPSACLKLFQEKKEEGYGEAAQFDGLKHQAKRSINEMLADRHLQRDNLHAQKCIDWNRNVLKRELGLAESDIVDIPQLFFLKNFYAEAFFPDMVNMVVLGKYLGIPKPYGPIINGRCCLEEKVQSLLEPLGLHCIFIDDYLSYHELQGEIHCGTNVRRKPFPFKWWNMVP
- ASSAY_SUMMARY: Inactivation kinetics of PAD1 (COLDER citrulline assay)
- Type: biochemical
- PROTOCOL_CONDITIONS: PAD1; marks: * nonlinear fit of kobs versus [I], ‡ linear fit, † single kobs

Use these answered entries as a reference point.
Task item: Return reported kinact/KI; argument: N=C(CCl)NCCC[C@H](NC(=O)c1cc(I)ccc1O)c1nc2ccccc2[nH]1
Reply: 3900 ± 100^‡ M^−1min^−1

Task item: Return reported kinact/KI; argument: C#Cc1c(I)cc(C(=O)N[C@@H](CCCNC(=N)CCl)c2nc3ccccc3[nH]2)c(O)c1I
Reply: 72160 ± 10970* M^−1min^−1

Task item: Return reported kinact/KI; argument: N=C(CF)NCCC[C@H](NC(=O)c1cccc(I)c1O)c1nc2ccccc2[nH]1
Reply: 300 ± 30^† M^−1min^−1

With those in mind, consider the next compound.
Task item: Return reported kinact/KI; argument: N=C(CCl)NCCC[C@H](NC(=O)c1cc(Cl)cc(Cl)c1O)c1nc2ccccc2[nH]1
Reply: 5300 ± 210^‡ M^−1min^−1

----------
- TARGET_OR_TEST_SYSTEM: PAD2 (Homo sapiens, UniProt Q9Y2J8)
- Construct: made in house
- Sequence (Q9Y2J8 whole entry): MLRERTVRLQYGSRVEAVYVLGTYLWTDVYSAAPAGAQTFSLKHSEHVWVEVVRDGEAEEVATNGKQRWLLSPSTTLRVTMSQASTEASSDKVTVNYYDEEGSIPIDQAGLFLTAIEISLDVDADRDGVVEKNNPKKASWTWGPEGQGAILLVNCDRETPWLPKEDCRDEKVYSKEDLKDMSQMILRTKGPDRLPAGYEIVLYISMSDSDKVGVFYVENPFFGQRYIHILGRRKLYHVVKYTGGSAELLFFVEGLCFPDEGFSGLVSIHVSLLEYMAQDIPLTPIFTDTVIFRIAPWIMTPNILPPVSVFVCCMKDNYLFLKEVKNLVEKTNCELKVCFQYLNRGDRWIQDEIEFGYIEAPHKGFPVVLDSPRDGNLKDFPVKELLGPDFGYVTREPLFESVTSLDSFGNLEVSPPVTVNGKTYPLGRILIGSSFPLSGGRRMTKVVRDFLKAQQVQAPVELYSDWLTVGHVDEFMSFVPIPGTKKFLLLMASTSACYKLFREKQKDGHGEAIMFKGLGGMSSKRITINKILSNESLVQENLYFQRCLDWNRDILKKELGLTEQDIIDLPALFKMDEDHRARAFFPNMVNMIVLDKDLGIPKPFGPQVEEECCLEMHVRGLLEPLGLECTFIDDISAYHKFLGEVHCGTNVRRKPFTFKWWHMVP
- ASSAY_SUMMARY: Inactivation kinetics of PAD2 (COLDER citrulline assay)
- Type: biochemical
- PROTOCOL_CONDITIONS: marks: * nonlinear fit of kobs versus [I], ‡ linear fit, † single kobs
REPORTED_PROPERTY: kinact/KI

Use these answered entries as a reference point.
Task item: # returns recorded kinact/KI (system: PAD2 (Homo sapiens, UniProt Q9Y2J8)) for N=C(CCl)NCCC[C@H](NC(=O)c1cccc(I)c1O)c1nc2ccccc2[nH]1
Reply: 2210 ± 270^† M^−1min^−1

Task item: # returns recorded kinact/KI (system: PAD2 (Homo sapiens, UniProt Q9Y2J8)) for N=C(CF)NCCC[C@H](NC(=O)c1cccc(I)c1O)c1nc2ccccc2[nH]1
Reply: 110 ± 10^† M^−1min^−1

Task item: # returns recorded kinact/KI (system: PAD2 (Homo sapiens, UniProt Q9Y2J8)) for N=C(CCl)NCCC[C@H](NC(=O)c1cc(I)ccc1O)c1nc2ccccc2[nH]1
Reply: 1700 ± 70^‡ M^−1min^−1

Task item: # returns recorded kinact/KI (system: PAD2 (Homo sapiens, UniProt Q9Y2J8)) for N=C(CCl)NCCC[C@H](NC(=O)c1cc(Cl)cc(Cl)c1O)c1nc2ccccc2[nH]1
Reply: 3400 ± 70^‡ M^−1min^−1

Task item: # returns recorded kinact/KI (system: PAD2 (Homo sapiens, UniProt Q9Y2J8)) for CC(C)c1cc(C(=O)N[C@@H](CCCNC(=N)CF)c2nc3ccccc3[nH]2)c(O)c(C(C)C)c1
Reply: 400 ± 30^† M^−1min^−1

Task item: # returns recorded kinact/KI (system: PAD2 (Homo sapiens, UniProt Q9Y2J8)) for C#Cc1c(I)cc(C(=O)N[C@@H](CCCNC(=N)CCl)c2nc3ccccc3[nH]2)c(O)c1I
Reply: 31230 ± 1440* M^−1min^−1

With those in mind, consider the next compound.
Task item: # returns recorded kinact/KI (system: PAD2 (Homo sapiens, UniProt Q9Y2J8)) for C#Cc1c(I)cc(C(=O)N[C@@H](CCCNC(=N)CF)c2nc3ccccc3[nH]2)c(O)c1I
Reply: 130 ± 30^† M^−1min^−1

----------
- TARGET_OR_TEST_SYSTEM: PAD3 (Homo sapiens)
- Construct: made in house
- Sequence (Q9ULW8 1-664): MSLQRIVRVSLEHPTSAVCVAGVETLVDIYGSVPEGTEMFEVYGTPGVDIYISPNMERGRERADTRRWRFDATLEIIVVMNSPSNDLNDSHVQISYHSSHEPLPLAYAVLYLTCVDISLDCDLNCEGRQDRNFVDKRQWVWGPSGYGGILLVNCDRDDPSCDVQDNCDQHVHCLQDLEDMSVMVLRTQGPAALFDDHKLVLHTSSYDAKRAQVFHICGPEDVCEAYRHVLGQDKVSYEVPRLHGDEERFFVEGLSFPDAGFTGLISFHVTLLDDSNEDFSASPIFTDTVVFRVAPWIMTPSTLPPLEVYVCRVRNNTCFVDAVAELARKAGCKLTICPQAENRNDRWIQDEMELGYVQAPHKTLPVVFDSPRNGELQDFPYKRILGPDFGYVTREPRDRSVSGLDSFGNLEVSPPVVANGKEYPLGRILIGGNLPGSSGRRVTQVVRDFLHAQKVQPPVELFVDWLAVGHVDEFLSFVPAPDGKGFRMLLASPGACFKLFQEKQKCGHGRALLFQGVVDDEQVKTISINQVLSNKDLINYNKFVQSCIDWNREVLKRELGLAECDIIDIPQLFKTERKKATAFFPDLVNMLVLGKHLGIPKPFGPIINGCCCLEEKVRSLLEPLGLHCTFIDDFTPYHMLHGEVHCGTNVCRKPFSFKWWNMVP
- ASSAY_SUMMARY: Inactivation kinetics of PAD3 (COLDER citrulline assay)
- Type: biochemical
- PROTOCOL_CONDITIONS: bracketed value under kinact/KI
REPORTED_PROPERTY: Fold PAD selectivity

Use these answered entries as a reference point.
Task item: # returns recorded Fold PAD selectivity (system: PAD3 (Homo sapiens)) for N=C(CF)NCCC[C@H](NC(=O)c1cc(Br)cc(Br)c1O)c1nc2ccccc2[nH]1 [Compound 11]
Reply: [3] fold

Task item: # returns recorded Fold PAD selectivity (system: PAD3 (Homo sapiens)) for N=C(CF)NCCC[C@H](NC(=O)c1cc(I)c(F)c(I)c1O)c1nc2ccccc2[nH]1 [Compound 19]
Reply: [2] fold

Task item: # returns recorded Fold PAD selectivity (system: PAD3 (Homo sapiens)) for N=C(CF)NCCC[C@H](NC(=O)c1cc(Cl)cc(Cl)c1O)c1nc2ccccc2[nH]1 [Compound 13]
Reply: [4] fold

Task item: # returns recorded Fold PAD selectivity (system: PAD3 (Homo sapiens)) for C#Cc1c(I)cc(C(=O)N[C@@H](CCCNC(=N)CF)c2nc3ccccc3[nH]2)c(O)c1I [Compound 21]
Reply: [2] fold

---
Task item: # returns recorded Fold PAD selectivity (system: PAD3 (Homo sapiens)) for N=C(CF)NCCC[C@H](NC(=O)c1cc(I)cc(I)c1)c1nc2ccccc2[nH]1 [Compound 5]
Reply: [3] fold

Task item: # returns recorded Fold PAD selectivity (system: PAD3 (Homo sapiens)) for N=C(CCl)NCCC[C@H](NC(=O)c1cc(Cl)cc(Cl)c1O)c1nc2ccccc2[nH]1 [Compound 14]
Reply: [2] fold

Task item: # returns recorded Fold PAD selectivity (system: PAD3 (Homo sapiens)) for N=C(CF)NCCC[C@H](NC(=O)c1cc(I)ccc1O)c1nc2ccccc2[nH]1 [Compound 15]
Reply: [4] fold
